System: CuFi-1
assay text: Anti-inflammatory activity in human CuFi1 cells assessed as reduction in Pseudomonas aeruginosa PAO1-induced IL-8 mRNA expression level at 0.1 uM pretreated for 1 hr followed by Pseudomonas aeruginosa PAO1 challenge and measured after 4 hrs by RT-PCR analysis relative to control
Assay type: functional
Set-up: scale not given: the % may be the effect or the level left
endpoint name: Activity

Some solved entries appear below for comparison.
compound: CCCCCCCCCN1C[C@H](O)[C@@H](O)[C@H](O)[C@H]1CO
val: 8%

compound: OC[C@H]1[C@H](O)[C@@H](O)[C@H](O)CN1CCCCCOCC12CC3CC(CC(C3)C1)C2
val: 29%

compound: CCCCN1C[C@@H](O)[C@H](O)[C@@H](O)[C@@H]1CO
val: <=20%

compound: CCCCN1CC(O)C(O)C(O)C1CO (racemic)
val: 30%

compound: CCCCCCCCCN1CC(O)C(O)C(O)C1CO (racemic)
val: 22%

// sample CCCCCCCCCN1C[C@@H](O)[C@H](O)[C@@H](O)[C@@H]1CO , its Activity was 16%

Just so you know, measured Activity for OCC1C(O)C(O)C(O)CN1CCCCCOCC12CC3CC(CC(C3)C1)C2 (racemic) came out at 42%

###

test system: UniProtKB Q9HCG7
Sequence (Q9HCG7 whole entry): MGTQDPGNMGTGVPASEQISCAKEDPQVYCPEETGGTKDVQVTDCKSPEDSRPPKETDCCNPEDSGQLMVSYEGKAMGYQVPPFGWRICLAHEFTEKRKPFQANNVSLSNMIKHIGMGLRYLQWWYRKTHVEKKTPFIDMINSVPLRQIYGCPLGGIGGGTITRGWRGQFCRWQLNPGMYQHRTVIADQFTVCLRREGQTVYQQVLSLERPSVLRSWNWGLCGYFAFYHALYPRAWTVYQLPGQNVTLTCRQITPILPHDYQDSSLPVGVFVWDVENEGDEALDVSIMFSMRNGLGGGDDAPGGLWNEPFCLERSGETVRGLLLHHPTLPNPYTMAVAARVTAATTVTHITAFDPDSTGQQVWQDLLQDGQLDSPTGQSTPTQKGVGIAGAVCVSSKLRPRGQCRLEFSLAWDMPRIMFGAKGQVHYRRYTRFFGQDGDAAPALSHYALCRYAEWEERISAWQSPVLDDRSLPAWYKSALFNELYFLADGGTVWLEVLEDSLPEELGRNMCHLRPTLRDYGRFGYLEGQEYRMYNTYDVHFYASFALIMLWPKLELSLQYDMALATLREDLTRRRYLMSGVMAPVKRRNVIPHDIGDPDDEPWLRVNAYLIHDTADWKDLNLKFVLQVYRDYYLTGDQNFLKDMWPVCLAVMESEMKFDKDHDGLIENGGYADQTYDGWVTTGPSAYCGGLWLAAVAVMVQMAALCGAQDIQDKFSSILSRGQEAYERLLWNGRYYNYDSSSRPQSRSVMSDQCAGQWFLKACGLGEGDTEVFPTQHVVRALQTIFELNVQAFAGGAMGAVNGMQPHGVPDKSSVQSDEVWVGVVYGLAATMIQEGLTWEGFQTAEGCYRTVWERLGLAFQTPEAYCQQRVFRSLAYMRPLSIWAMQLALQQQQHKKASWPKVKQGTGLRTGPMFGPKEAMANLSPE
endpoint name: IC50 (µM)
# output: bare number, implied unit µM

Value of IC50 reported for the molecule CCCCCCOCCCCCN1C[C@@H](O)[C@H](O)[C@@H](O)[C@@H]1CO is 36.7
